B1: AP-4 complex accessory subunit RUSC1 (Homo sapiens), Q9BVN2 (parent)
chain: MLSPQRALLCNLNHIHLQHVSLGLHLSRRPELQEGPLSTPPPPGDTGGKESRGPCSGTLVDANSNSPAVPCRCCQEHGPGLENRQDPSQEEEGAASPSDPGCSSSLSSCSDLSPDESPVSVYLRDLPGDEDAHPQPSIIPLEQGSPLASAGPGTCSPDSFCCSPDSCSGASSSPDPGLDSNCNALTTCQDVPSPGLEEEDERAEQDLPTSELLEADDGKIDAGKTEPSWKINPIWKIDTEKTKAEWKTTENNNTGWKNNGNVNSSWKSEPEKFDSGWKTNTRITDSGSKTDAGKIDGGWRSDVSEEPVPHRTITSFHELAQKRKRGPGLPLVPQAKKDRSDWLIVFSPDTELPPSGSPGGSSAPPREVTTFKELRSRSRAPAPPVPPRDPPVGWALVPPRPPPPPVPPRRKKNRPGLQPIAEGQSEEGRAVSPAAGEEAPAAKEPGAQAGLEVRSSWSFAGVPGAQRLWMAEAQSGTGQLQEQKKGLLIAVSVSVDKIISHFGAARNLVQKAQLGDSRLSPDVGHLVLTTLCPALHALVADGLKPFRKDLITGQRRSSPWSVVEASVKPGSSTRSLGTLYSQVSRLAPLSSSRSRFHAFILGLLNTKQLELWFSSLQEDAGLLSLLYLPTGFFSLARGGCPSLSTELLLLLQPLSVLTFHLDLLFEHHHHLPLGPPQAPAPPGPPPALQQTMQAMLHFGGRLAQSLRGTSKEAASDPSDSPNLPTPGSWWEQLTQASRVYASGGTEGFPLSRWAPGRHGTAAEEGAQERPLPTDEMAPGRGLWLGRLFGVPGGPAENENGALKSRRPSSWLPPTVSVLALVKRGAPPEMPSPQELEASAPRMVQTHRAVRALCDHTAARPDQLSFRRGEVLRVITTVDEDWLRCGRDGMEGLVPVGYTSLVL

variants of: B1; conditions: with pnma1_human PNMA1, Q8ND90
Sequence (Q8ND90 whole entry): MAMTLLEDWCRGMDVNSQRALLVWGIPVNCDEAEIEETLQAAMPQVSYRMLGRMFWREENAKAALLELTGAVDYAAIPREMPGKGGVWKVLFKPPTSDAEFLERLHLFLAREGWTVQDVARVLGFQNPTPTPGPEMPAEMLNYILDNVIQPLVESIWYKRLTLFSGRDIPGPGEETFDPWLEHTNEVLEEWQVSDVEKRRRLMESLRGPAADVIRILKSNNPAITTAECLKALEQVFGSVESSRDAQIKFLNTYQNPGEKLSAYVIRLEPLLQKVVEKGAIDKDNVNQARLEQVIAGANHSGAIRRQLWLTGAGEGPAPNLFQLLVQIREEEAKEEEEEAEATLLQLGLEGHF
METRIC: effect of a mutation on the interaction

# count of solved cases: 4
{"VARIANT DESCRIPTION": "G638S", "effect of a mutation on the interaction": "with no effect"}
{"VARIANT DESCRIPTION": "S614F", "effect of a mutation on the interaction": "with no effect"}
{"VARIANT DESCRIPTION": "F665S", "effect of a mutation on the interaction": "with no effect"}
{"VARIANT DESCRIPTION": "V493A", "effect of a mutation on the interaction": "with no effect"}

Now for another entry.
### Prompt Which effect of a mutation on the interaction is reported for this variant? D880Y
### Response with no effect
